MEASURED METRIC: melting point

COMPOUND | MEASURED METRIC | OBSERVED MEASUREMENT
O=C(O)C(Cc1ccccn1)Nc1cc(-c2ccc(OCc3cccc(F)c3)cc2)ncn1 (stereo not drawn) [Example 2-33] | melting point | 92 to 95 °C
CCCCC(Nc1cc(-c2ccc(OCc3cccc(OC)c3)cc2)ncn1)C(=O)O (stereo not drawn) [Example 2-44] | melting point | 115 to 118 °C
O=C(O)C(CCc1ccccc1)Nc1cc(-c2ccc(OCc3ccccc3)cc2)ncn1 (stereo not drawn) [Example 1-14] | melting point | 226 to 228 °C
O=C(O)C(Cc1ccccc1)Nc1cccc(-c2ccc(OCc3ccccc3)cc2)n1 (stereo not drawn) [Example 3-3] | melting point | 81 to 84 °C
COc1ccc(-c2cc(NC(Cc3ccccc3)C(=O)O)ncn2)cc1 (stereo not drawn) [Example 2-13] | melting point | 203 to 206 °C (dec.)
COc1cccc(-c2ccc(-c3cc(NC(Cc4ccccc4)C(=O)O)ncn3)cc2)c1 (stereo not drawn) [Example 11-4] | melting point | 112 to 114 °C (dec.)

* * *

Attribute: melting point

COMPOUND | melting point
O=C(O)C(Cc1cccnc1)Nc1cc(-c2ccc(OCc3ccccc3)cc2)ncn1 (stereo not drawn) | 188 to 192 °C
O=C(O)C(Cc1ccccc1)Nc1cccc(-c2ccc(OCCn3cccc3)cc2)c1 (stereo not drawn) | 182 to 185 °C
O=C(O)C(Cc1ccccc1)Nc1cc(-c2ccc(-c3cccc(-c4ccccc4)c3)cc2)ncn1 (stereo not drawn) | 124 to 126 °C (dec.)
O=C(O)[C@H](Cc1ccccc1)Nc1cc(-c2ccc(OCC3CC3)cc2)ncn1 [Example 1-49] | 180 to 185 °C
COc1cc(-c2ccc(-c3cc(NC(Cc4ccccc4)C(=O)O)ncn3)cc2)cc(OC)c1OC (stereo not drawn) | 120 to 123 °C
O=C(O)C(Cc1ccccc1)Nc1cc(-c2ccc(OCCN3CCCC3)cc2)ncn1 (stereo not drawn) | 117 to 120 °C
O=C(O)C(Cc1ccccc1)Nc1cc(-c2ccc(-c3ccc4ccccc4c3)cc2)ncn1 (stereo not drawn) | 130 to 132 °C (dec.)
O=C(O)C(Cc1ccccn1)Nc1ncnc(-c2ccc(OCc3ccccc3)cc2)c1F (stereo not drawn) | 177 to 178 °C
CC(C)(C)OC(=O)Nc1ccc(-c2cc(NC(Cc3ccccc3)C(=O)O)ncn2)cc1 (stereo not drawn) | 153 to 155 °C (dec.)
O=C(O)C(Cc1ccc(F)cc1)Nc1cc(-c2ccc(OCc3ccccc3)cc2)ncn1 (stereo not drawn) | 186 °C
CCCCC(Nc1cc(-c2ccc(OCc3cccc(F)c3)cc2)ncn1)C(=O)O (stereo not drawn) | 181 to 186 °C
O=C(O)[C@H](Cc1ccccc1)Nc1cc(-c2ccc(C#Cc3ccccc3)cc2)ncn1 | 215 to 218 °C (dec.)
COc1cccc(COc2ccc(-c3cccc(N[C@@H](Cc4ccccc4)C(=O)O)c3)cc2)c1 | 159 to 162 °C
CC(O)C(Nc1cc(-c2ccc(OCc3ccccc3)cc2)ncn1)C(=O)O (stereo not drawn) | 211 to 214 °C
CCCCC(Nc1cc(-c2ccc(-c3ccccc3)cc2)ncn1)C(=O)O (stereo not drawn) | 110 to 120 °C
O=C(O)C(Cc1ccccc1)Nc1cc(-c2ccc(OCC3CC3)nc2)ncn1 (stereo not drawn) | 113 to 114 °C
O=C(O)C(Cc1ccccc1)Nc1cc(-c2ccc(Oc3ccccc3)cc2)ncn1 (stereo not drawn) | 214 to 217 °C (dec.)
O=C(Nc1ccc(-c2cc(N[C@@H](Cc3ccccc3)C(=O)O)ncn2)cc1)c1ccccc1 | 250 to 252 °C (dec.)
O=C(O)C(Cc1ccccc1)Nc1cc(-c2ccc(CN3CCc4ccccc4C3)cc2)ncn1 (stereo not drawn) | 148 to 150 °C
O=C(O)C(Cc1ccccc1)Nc1cccc(-c2ccc(OCc3ccc(F)cc3)cc2)c1 (stereo not drawn) | 175 to 178 °C
O=C(O)C(Cc1ccccc1)Nc1cc(-c2ccc(OCc3ccc(F)cc3)cc2)ncn1 (stereo not drawn) | 228 to 230 °C (dec.)
O=C(O)C(Cc1ccc(Cl)cc1)Nc1cc(-c2ccc(OCC3CC3)cc2)ncn1 (stereo not drawn) | 166 to 169 °C
CCCCC(Nc1cc(-c2ccc(OCCc3ccccc3)cc2)ncn1)C(=O)O (stereo not drawn) | 86 to 88 °C
O=C(O)C(Cc1ccc(F)cc1)Nc1cc(-c2ccc(OCC3CC3)cc2)ncn1 (stereo not drawn) | 126 to 128 °C
O=C(O)C(Cc1ccccn1)Nc1cc(-c2ccc(OCc3ccccc3F)cc2)ncn1 (stereo not drawn) | 84 to 87 °C
O=C(O)C(Cc1ccccc1)Nc1cc(-c2ccc(O)cc2)ncn1 (stereo not drawn) | 223 to 227 °C
O=C(NO)C(Cc1ccccc1)Nc1cc(-c2ccc(OCc3ccccc3)cc2)ncn1 (stereo not drawn) | 235 to 239 °C
